The measured values listed here are drawn from paper PMC10746112.

Tested on: MUTU-I Burkitt’s lymphoma cell line
assay.notes: alamarBlue cell viability assay
test.conditions: MUTU-I, 24 h, read-out: % Viable Cells Remaining MUTU-1, 1 µM, 24 h

{"columns": ["compound", "target.system", "unit.string", "viability at 1 µM"],
 "data": [
  ["CC/C(=C\\c1c2ccccc2c(Cl)c2ccccc12)[N+](=O)[O-] [Compound 19f]", "MUTU-I Burkitt’s lymphoma cell line", "%", 96.6],
  ["ClCc1c2ccccc2cc2ccccc12 [Compound 27, 9-(chloromethyl)anthracene]", "MUTU-I Burkitt’s lymphoma cell line", "%", 102],
  ["O/N=C/c1c2ccccc2cc2ccccc12 [Compound 32c]", "MUTU-I Burkitt’s lymphoma cell line", "%", 99.2],
  ["O=[N+]([O-])/C=C/c1c2ccccc2c(Br)c2ccccc12 [Compound 19h, (E)-9-Bromo-10-(2-Nitrovinyl)Anthracene]", "MUTU-I Burkitt’s lymphoma cell line", "%", 51.2],
  ["C/C(=C\\c1c2ccccc2cc2ccccc12)[N+](=O)[O-] [Compound 19b, (E)-9-(2-nitroprop-1-en-1-yl)anthracene]", "MUTU-I Burkitt’s lymphoma cell line", "%", 99.8]
]}

====

System: HL-60 promyelocytic leukaemia cells
assay.notes: alamarBlue cell viability assay
test.conditions: Homo sapiens, HL-60, 24 h, read-out: % Viable Cells Remaining HL60 24 h 10 µM
Entries whose viability at 10 µM is below 9% take Y; entries at or above 9% take N.

{"columns": ["compound", "target.system", "category"],
 "data": [
  ["C/C(=C\\c1ccc(Cl)cc1)[N+](=O)[O-] [Compound 11i]", "HL-60 promyelocytic leukaemia cells", "Y"],
  ["C/C(=C\\c1ccccc1Cl)[N+](=O)[O-] [Compound 11g]", "HL-60 promyelocytic leukaemia cells", "N"],
  ["CC(=O)O[C@H]1C(=O)[C@@]2(C)[C@H]([C@H](OC(=O)c3ccccc3)[C@]3(O)C[C@H](OC(=O)[C@H](O)[C@@H](NC(=O)c4ccccc4)c4ccccc4)C(C)=C1C3(C)C)[C@]1(OC(C)=O)CO[C@@H]1C[C@@H]2O [Taxol, taxol, reference compound]", "HL-60 promyelocytic leukaemia cells", "N"],
  ["C/C(=C\\c1cccc(Cl)c1)[N+](=O)[O-] [Compound 11h]", "HL-60 promyelocytic leukaemia cells", "Y"]
]}

====

assay.notes: viability of peripheral blood mononuclear cells
Type: cell-based, human
test.conditions: human, 10 µM, healthy donor PBMCs
measured.endpoint: viability at 24 h, 10 µM

{"columns": ["compound", "result"],
 "data": [
  ["C/C(=C\\c1cccc(Cl)c1)[N+](=O)[O-] [Compound 11h]", "34.1%"]
]}

====

Test system: DG-75 BL cells
assay.notes: Annexin V/PI apoptotic assay (FACS)
Format: cell-based
test.conditions: 10 µM, 48 h, total (early + late) apoptosis
Procedure: The chemotherapeutic drug taxol was used as a positive control. The pro-apoptotic effects of the selected nitrostyrene compounds 11g, 11h, 11i, 11j, 11k and 11l (10 μM) were determined using FITC (fluorescein isothiocyanate), Annexin V/PI (propidium iodide) staining and FACS (fluorescence-activated cell sorting) analysis to characterise the mode of cellular death induced by the synthesised compounds. […]
measured.endpoint: DG-75 Apoptosis (%)

{"columns": ["molecule", "unit.string", "readout.number"],
 "data": [
  ["CC/C(=C\\c1cccc(Cl)c1)[N+](=O)[O-] [Compound 11k]", "%", 90.7],
  ["C/C(=C\\c1ccc(Cl)cc1)[N+](=O)[O-] [Compound 11i]", "%", 86.4],
  ["C/C(=C\\c1cccc(Cl)c1)[N+](=O)[O-] [Compound 11h]", "%", 92.0],
  ["C/C(=C\\c1ccccc1Cl)[N+](=O)[O-] [Compound 11g]", "%", 70.6],
  ["CC/C(=C\\c1ccccc1Cl)[N+](=O)[O-] [Compound 11j]", "%", 72.3],
  ["CC/C(=C\\c1ccc(Cl)cc1)[N+](=O)[O-] [Compound 11l]", "%", 85.0],
  ["CC(=O)O[C@H]1C(=O)[C@@]2(C)[C@H]([C@H](OC(=O)c3ccccc3)[C@]3(O)C[C@H](OC(=O)[C@H](O)[C@@H](NC(=O)c4ccccc4)c4ccccc4)C(C)=C1C3(C)C)[C@]1(OC(C)=O)CO[C@@H]1C[C@@H]2O [Taxol, taxol, reference compound]", "%", 72.8]
]}

====

assay.notes: physchem
Format: physicochemical
test.conditions: buffer, pH 4
measured.endpoint: half-life

{"columns": ["molecule", "result"],
 "data": [
  ["CC(C)c1c2ccccc2c(/C=C/[N+](=O)[O-])c2ccccc12 [Compound 19m]", "> 24 h"]
]}

====

assay.notes: physchem
Type: physicochemical
test.conditions: buffer, pH 9
measured.endpoint: half-life

{"columns": ["molecule", "result"],
 "data": [
  ["CC(C)c1c2ccccc2c(/C=C/[N+](=O)[O-])c2ccccc12 [Compound 19m]", "19 h"]
]}

====

Test system: MUTU-I Burkitt’s lymphoma cell line
test.conditions: human, 24 h, 10 µM
% Viable Cells Remaining MUTU-1: recorded values

{"columns": ["molecule", "target.system", "unit.string", "% Viable Cells Remaining MUTU-1"],
 "data": [
  ["CC(=CCc1c2ccccc2cc2ccccc12)[N+](=O)[O-] [Compound 20b, 9-(3-Nitrobut-2-en-1-yl)Anthracene]", "MUTU-I Burkitt’s lymphoma cell line", "%", 14.55],
  ["O=[N+]([O-])CCc1c2ccccc2cc2ccccc12 [Compound 22, 9-(2-Nitroethyl)Anthracene]", "MUTU-I Burkitt’s lymphoma cell line", "%", 100.6],
  ["O=C(c1c2ccccc2cc2ccccc12)N1CCCCC1 [Compound 33f]", "MUTU-I Burkitt’s lymphoma cell line", "%", 84.8],
  ["C/C(=C\\c1c2ccccc2c(Cl)c2ccccc12)[N+](=O)[O-] [Compound 19e]", "MUTU-I Burkitt’s lymphoma cell line", "%", 98.6],
  ["CC/C(=C\\c1c2ccccc2c(Cl)c2ccccc12)[N+](=O)[O-] [Compound 19f]", "MUTU-I Burkitt’s lymphoma cell line", "%", 97.5],
  ["ClCc1c2ccccc2cc2ccccc12 [Compound 27, 9-(chloromethyl)anthracene]", "MUTU-I Burkitt’s lymphoma cell line", "%", 93.8],
  ["CN(C)C(=O)c1c2ccccc2cc2ccccc12 [Compound 33b]", "MUTU-I Burkitt’s lymphoma cell line", "%", 90.1],
  ["O=C(c1c2ccccc2cc2ccccc12)N1CCCCCC1 [Compound 33c, Anthracen-9-yl(Azepan-1-yl)Methanone]", "MUTU-I Burkitt’s lymphoma cell line", "%", 77.4],
  ["c1ccc2c(C3CNN=N3)c3ccccc3cc2c1 (centres unmarked) [Compound 31]", "MUTU-I Burkitt’s lymphoma cell line", "%", 103.1],
  ["O=[N+]([O-])/C=C/c1c2ccccc2c(Cl)c2ccccc12 [Compound 19d]", "MUTU-I Burkitt’s lymphoma cell line", "%", 7.61],
  ["O=C(c1c2ccccc2cc2ccccc12)N1CCCC1 [Compound 33d]", "MUTU-I Burkitt’s lymphoma cell line", "%", 95.6],
  ["c1ccc2c(-c3c[nH]nn3)c3ccccc3cc2c1 [Compound 30a, 4-(anthracen-9-yl)-1H-1,2,3-triazole]", "MUTU-I Burkitt’s lymphoma cell line", "%", 94.5],
  ["CC(=O)/C=C/c1c2ccccc2cc2ccccc12 [Compound 25]", "MUTU-I Burkitt’s lymphoma cell line", "%", 103.2],
  ["Cc1[nH]nnc1-c1c2ccccc2cc2ccccc12 [Compound 30b]", "MUTU-I Burkitt’s lymphoma cell line", "%", 107.3]
]}

====

% Viable Cells Remaining DG-75: recorded values
Tested on: DG-75 Burkitt’s lymphoma cell line
test.conditions: human, 48 h, 10 µM

{"columns": ["compound", "% Viable Cells Remaining DG-75, %"],
 "data": [
  ["Cc1[nH]nnc1-c1c2ccccc2cc2ccccc12 [Compound 30b]", 100.6],
  ["c1ccc2c(-c3c[nH]nn3)c3ccccc3cc2c1 [Compound 30a, 4-(anthracen-9-yl)-1H-1,2,3-triazole]", 94.86],
  ["O=[N+]([O-])CCc1c2ccccc2cc2ccccc12", 99.08],
  ["c1ccc2c(C3CNN=N3)c3ccccc3cc2c1 (stereo not shown)", 103.1],
  ["O=[N+]([O-])C=CCc1c2ccccc2cc2ccccc12 [Compound 20a, 9-(3-Nitroallyl)Anthracene]", 79.71],
  ["CC(=CCc1c2ccccc2cc2ccccc12)[N+](=O)[O-] [Compound 20b, 9-(3-Nitrobut-2-en-1-yl)Anthracene]", 97.63],
  ["CC(=O)/C=C/c1c2ccccc2cc2ccccc12", 100.5]
]}

====

System: MUTU-I Burkitt’s lymphoma cell line
assay.notes: alamarBlue cell viability assay
test.conditions: MUTU-I, 24 h, read-out: % Viable Cells Remaining MUTU-1, 1 µM, 24 h

{"columns": ["compound", "viability at 1 µM [%]"],
 "data": [
  ["O=[N+]([O-])/C=C/c1c2ccccc2cc2ccccc12 [Compound 19a, (E)-9-(2-nitrovinyl)anthracene]", 82.5],
  ["C/C(=C\\c1c2ccccc2c(Cl)c2ccccc12)[N+](=O)[O-] [Compound 19e]", 105],
  ["O=[N+]([O-])C=CCc1c2ccccc2cc2ccccc12 [Compound 20a, 9-(3-Nitroallyl)Anthracene]", 106],
  ["O=[N+]([O-])CCc1c2ccccc2cc2ccccc12", 105],
  ["COc1c2ccccc2c(/C=C/[N+](=O)[O-])c2ccccc12 [Compound 19g]", 90.1],
  ["Cc1[nH]nnc1-c1c2ccccc2cc2ccccc12 [Compound 30b]", 108],
  ["N/N=C/c1c2ccccc2cc2ccccc12 [Compound 32a]", 97.5],
  ["O=C(c1c2ccccc2cc2ccccc12)N1CCCC1 [Compound 33d]", 91.6],
  ["c1ccc2c(CN3CCCCCC3)c3ccccc3cc2c1 [Compound 29a]", 103],
  ["c1ccc2c(CN3CCCC3)c3ccccc3cc2c1 [Compound 29b]", 108],
  ["O=[N+]([O-])/C=C/c1c2ccccc2c(Cl)c2ccccc12 [Compound 19d]", 70.8],
  ["O=C(c1c2ccccc2cc2ccccc12)N1CCCCCC1 [Compound 33c, Anthracen-9-yl(Azepan-1-yl)Methanone]", 86.8],
  ["c1ccc2c(C3CNN=N3)c3ccccc3cc2c1 (stereo not drawn)", 96],
  ["c1ccc2c(-c3c[nH]nn3)c3ccccc3cc2c1 [Compound 30a, 4-(anthracen-9-yl)-1H-1,2,3-triazole]", 94.9],
  ["N/N=C/c1c2ccccc2c(Cl)c2ccccc12 [Compound 32b]", 105],
  ["O=C(c1c2ccccc2cc2ccccc12)N1CCOCC1 [Compound 33e]", 86.9],
  ["O=C(c1c2ccccc2cc2ccccc12)N1CCCCC1 [Compound 33f]", 83.1],
  ["CC(=O)/C=C/c1c2ccccc2cc2ccccc12", 107],
  ["Cc1c2ccccc2c(/C=C/[N+](=O)[O-])c2ccccc12 [Compound 19i, (E)-9-Methyl-10-(2-Nitrovinyl)Anthracene]", 94.5],
  ["O=[N+]([O-])/C=C/c1c2cccc(Cl)c2cc2c(Cl)cccc12 [Compound 19k]", 71],
  ["CC(=CCc1c2ccccc2cc2ccccc12)[N+](=O)[O-] [Compound 20b, 9-(3-Nitrobut-2-en-1-yl)Anthracene]", 105],
  ["O=[N+]([O-])/C=C/c1c2ccccc2c(-c2ccccc2)c2ccccc12 [Compound 19j, (E)-9-(2-Nitrovinyl)-10-Phenylanthracene]", 68.5],
  ["O/N=C/Cc1c2ccccc2cc2ccccc12 [Compound 32e]", 103],
  ["CN(C)C(=O)c1c2ccccc2cc2ccccc12 [Compound 33b]", 91.4],
  ["CNCCCC12CCC(c3ccccc31)c1ccccc12 [Maprotiline, maprotiline, reference compound]", 93.1],
  ["OCc1c2ccccc2cc2ccccc12", 106],
  ["CCN(CC)C(=O)c1c2ccccc2cc2ccccc12 [Compound 33a]", 105],
  ["N#C/C=C/c1c2ccccc2cc2ccccc12 [Compound 23c]", 88.1],
  ["CC(=O)O[C@H]1C(=O)[C@@]2(C)[C@H]([C@H](OC(=O)c3ccccc3)[C@]3(O)C[C@H](OC(=O)[C@H](O)[C@@H](NC(=O)c4ccccc4)c4ccccc4)C(C)=C1C3(C)C)[C@]1(OC(C)=O)CO[C@@H]1C[C@@H]2O [Taxol, taxol, reference compound]", 32],
  ["CCc1c2ccccc2c(/C=C/[N+](=O)[O-])c2ccccc12 [Compound 19l, (E)-9-Ethyl-10-(2-Nitrovinyl)Anthracene]", 72.7],
  ["N#CCc1c2ccccc2cc2ccccc12", 95.2],
  ["CC/C(=C\\c1c2ccccc2cc2ccccc12)[N+](=O)[O-] [Compound 19c]", 88.6],
  ["CC(C)c1c2ccccc2c(/C=C/[N+](=O)[O-])c2ccccc12 [Compound 19m]", 78.4]
]}
